- studySystem: d-enCas12a (Acidaminococcus sp., UniProt U2UMQ6 1-1307, E174R;S542R;K548R;D908A;E993A;D1235A)
- assayNotes: Spec-seq (native PAGE EMSA with sequencing of bound and unbound); 25 mM Tris-HCl pH 7.4, 150 mM KCl, 5 mM MgCl2, 10% glycerol, 1 mM DTT, 40 ng/uL salmon sperm DNA; 400 nM Cas12a, 480 nM crRNA, 50 nM library, 37 C 1 h; native PAGE at room temperature; high values mean tight binding;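 note: relative affinity from the bound to unbound sequence frequency ratio in Spec-seq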
- reportedConditions: protein: recombinant
Assign binding signal to each entry below.
Answer in lnKA, number only, no unit symbol.

Bench note: what binding signal did ATAT (dsDNA) DNA 1: GCTATCTAGTGCTCAGTACGCACTGATATAGGAAACTTCTGGCAGGACCAGGTCATGAGATCGGAAGAGCACACGTCTGAACTCCAGTCA DNA 2: TGACTGGAGTTCAGACGTGTGCTCTTCCGATCTCATGACCTGGTCCTGCCAGAAGTTTCCTATATCAGTGCGTACTGAGCACTAGATAGC RNA: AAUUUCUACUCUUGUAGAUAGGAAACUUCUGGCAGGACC show?
-5.63

Fill blank: measured binding signal of the binder TCCG (dsDNA) DNA 1: GCTATCTAGTGCTCAGTACGCACTGTCCGAGGAAACTTCTGGCAGGACCAGGTCATGAGATCGGAAGAGCACACGTCTGAACTCCAGTCA DNA 2: TGACTGGAGTTCAGACGTGTGCTCTTCCGATCTCATGACCTGGTCCTGCCAGAAGTTTCCTCGGACAGTGCGTACTGAGCACTAGATAGC RNA: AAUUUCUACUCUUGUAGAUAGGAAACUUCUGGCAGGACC is ____.
-3.12

Which measured binding signal value corresponds to CTTG (dsDNA) DNA 1: GCTATCTAGTGCTCAGTACGCACTGCTTGAGGAAACTTCTGGCAGGACCAGGTCATGAGATCGGAAGAGCACACGTCTGAACTCCAGTCA DNA 2: TGACTGGAGTTCAGACGTGTGCTCTTCCGATCTCATGACCTGGTCCTGCCAGAAGTTTCCTCAAGCAGTGCGTACTGAGCACTAGATAGC RNA: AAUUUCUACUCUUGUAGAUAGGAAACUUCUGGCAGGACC ?
-1.7

Report binding signal for AATG (dsDNA) DNA 1: GCTATCTAGTGCTCAGTACGCACTGAATGAGGAAACTTCTGGCAGGACCAGGTCATGAGATCGGAAGAGCACACGTCTGAACTCCAGTCA DNA 2: TGACTGGAGTTCAGACGTGTGCTCTTCCGATCTCATGACCTGGTCCTGCCAGAAGTTTCCTCATTCAGTGCGTACTGAGCACTAGATAGC RNA: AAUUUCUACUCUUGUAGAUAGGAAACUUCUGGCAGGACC please.
-3.79

May I ask what binding signal has been recorded for GTTA (dsDNA) DNA 1: GCTATCTAGTGCTCAGTACGCACTGGTTAAGGAAACTTCTGGCAGGACCAGGTCATGAGATCGGAAGAGCACACGTCTGAACTCCAGTCA DNA 2: TGACTGGAGTTCAGACGTGTGCTCTTCCGATCTCATGACCTGGTCCTGCCAGAAGTTTCCTTAACCAGTGCGTACTGAGCACTAGATAGC RNA: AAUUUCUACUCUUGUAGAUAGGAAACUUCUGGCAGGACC ?
-0.547

Endpoint output: binding signal of GTGT (dsDNA) DNA 1: GCTATCTAGTGCTCAGTACGCACTGGTGTAGGAAACTTCTGGCAGGACCAGGTCATGAGATCGGAAGAGCACACGTCTGAACTCCAGTCA DNA 2: TGACTGGAGTTCAGACGTGTGCTCTTCCGATCTCATGACCTGGTCCTGCCAGAAGTTTCCTACACCAGTGCGTACTGAGCACTAGATAGC RNA: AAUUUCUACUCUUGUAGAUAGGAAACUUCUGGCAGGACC . Value?
-5.78

Need binding signal, item CCCA (dsDNA) DNA 1: GCTATCTAGTGCTCAGTACGCACTGCCCAAGGAAACTTCTGGCAGGACCAGGTCATGAGATCGGAAGAGCACACGTCTGAACTCCAGTCA DNA 2: TGACTGGAGTTCAGACGTGTGCTCTTCCGATCTCATGACCTGGTCCTGCCAGAAGTTTCCTTGGGCAGTGCGTACTGAGCACTAGATAGC RNA: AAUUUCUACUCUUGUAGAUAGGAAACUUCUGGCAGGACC
-3.48

I would be grateful if you could share the reported binding signal for TGAG (dsDNA) DNA 1: GCTATCTAGTGCTCAGTACGCACTGTGAGAGGAAACTTCTGGCAGGACCAGGTCATGAGATCGGAAGAGCACACGTCTGAACTCCAGTCA DNA 2: TGACTGGAGTTCAGACGTGTGCTCTTCCGATCTCATGACCTGGTCCTGCCAGAAGTTTCCTCTCACAGTGCGTACTGAGCACTAGATAGC RNA: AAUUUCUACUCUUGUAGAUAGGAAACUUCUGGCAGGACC .
-5.65

Name the reported binding signal value associated with the binder GGGA (dsDNA) DNA 1: GCTATCTAGTGCTCAGTACGCACTGGGGAAGGAAACTTCTGGCAGGACCAGGTCATGAGATCGGAAGAGCACACGTCTGAACTCCAGTCA DNA 2: TGACTGGAGTTCAGACGTGTGCTCTTCCGATCTCATGACCTGGTCCTGCCAGAAGTTTCCTTCCCCAGTGCGTACTGAGCACTAGATAGC RNA: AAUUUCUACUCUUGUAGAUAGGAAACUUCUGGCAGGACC
-5.68

Query (binder): AGAC (dsDNA) DNA 1: GCTATCTAGTGCTCAGTACGCACTGAGACAGGAAACTTCTGGCAGGACCAGGTCATGAGATCGGAAGAGCACACGTCTGAACTCCAGTCA DNA 2: TGACTGGAGTTCAGACGTGTGCTCTTCCGATCTCATGACCTGGTCCTGCCAGAAGTTTCCTGTCTCAGTGCGTACTGAGCACTAGATAGC RNA: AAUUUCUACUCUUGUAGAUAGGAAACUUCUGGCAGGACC ; field requested: binding signal
-5.69
